Reported melting point values for the following compounds.
Where a name gives a salt, the structure may show the parent alone.
READOUT: melting point (°C)

O=c1c2c([nH]n1-c1ccc(S(=O)(=O)N3CCCCCC3)cn1)CSC2 ... 236
COc1ccnc(-n2[nH]c3c(c2=O)CSC3)c1 ... 254
CN(C)c1ccnc(-n2[nH]c3c(c2=O)CSC3)c1 (as salt: HCl) ... 182

###

Reported melting point values for the following compounds.
READOUT: melting point (°C)

O=c1c2c([nH]n1-c1ccc(S(=O)(=O)NC3CC3)cn1)CSC2 [Compound 16] ... 262
CCN(c1ccccc1)S(=O)(=O)c1ccc(-n2[nH]c3c(c2=O)SCCC3)nc1 [Compound 24] ... 198
CCN(c1ccccc1)S(=O)(=O)c1ccc(-n2[nH]c3c(c2=O)CCCCCC3)nc1 [Compound 37] ... 200
O=c1c2c([nH]n1-c1ccccn1)CCSC2 [Compound 12] ... 175
CCN(c1ccccc1)S(=O)(=O)c1ccc(-n2[nH]c3c(c2=O)COCC3)nc1 [Compound 25] ... 164
CCN(c1ccccc1)S(=O)(=O)c1ccc(-n2[nH]c3c(c2=O)CN(C(C)=O)CC3)nc1 [Compound 29] ... 118
